All values here come from patent US20260200849A1.

- System: IL-6
- assay.remarks: In vivo tolerability by IV: serum IL-6 by Luminex
- Parameters: species or system C57BL/6J mice
- experimental.conditions: Formulation No. 001, RNA No. 331, male C57BL/6J mice, 1.0 mg*kg/1 intravenous, 2 hours post injection
assay.endpoint: IL-6 at 2 h (pg/mL)
// units = pg/mL; emit number, no label

# input compound: CCCCCCCCC(CCCCCC)C(=O)OCCCCCCCCOC(=O)NC(COC(=O)NCCN1CCCCC1)C(=O)OCCCCCCCCOC(=O)C(CCCCCC)CCCCCCCC (stereo not shown) ; wanted: its IL-6 at 2 h 5.5

# input compound: CCCCC/C=C\C/C=C\CCCCCCCCOC(=O)NC(COC(=O)NCCN1CCCCCC1)C(=O)OCCCCCCCC(=O)OC(CCCCCCCC)CCCCCCCC (stereo not shown) ; wanted: its IL-6 at 2 h 23

# input compound: CCCCCCCCC(CCCCCC)C(=O)OCCCCCCCCOC(=O)NC(COC(=O)NCCN1CCCCCC1)C(=O)OCCCCCCCCOC(=O)C(CCCCCC)CCCCCCCC (stereo not shown) ; wanted: its IL-6 at 2 h 7.62

# input compound: CCCCCCCCCCCOC(=O)CCCCCOC(=O)C(COC(=O)NCCN1CCCCCC1)NC(=O)OCCCCCCCCOC(=O)C(CCCCCC)CCCCCCCC (stereo not shown) ; wanted: its IL-6 at 2 h 47.1

# input compound: CCCCC/C=C\C/C=C\CCCCCCCCOC(=O)NC(COC(=O)NCCN1CCCCCC1)C(=O)OCCCCCCCCOC(=O)C(CCCCCC)CCCCCCCC (stereo not shown) ; wanted: its IL-6 at 2 h 12.8

# input compound: CCCCCCCCCCCOC(=O)NC(COC(=O)NCCN1CCCCC1)C(=O)OCCCCCCCC(=O)OC(CCCCCCCC)CCCCCCCC (stereo not shown) ; wanted: its IL-6 at 2 h 4.6

# input compound: CCCCC/C=C\C/C=C\CCCCCCCCOC(=O)C(COC(=O)NCCN1CCCCCC1)NC(=O)OCCCCCCCCOC(=O)C(CCCCCC)CCCCCCCC (stereo not shown) ; wanted: its IL-6 at 2 h 25.8

# input compound: CCCCCCCCC(CCCCCC)C(=O)OCCCCCCCCOC(=O)NC(COC(=O)NCCN1CCCCC1)C(=O)OCCCCCCCCCCC(=O)OCCCCCC (stereo not shown) ; wanted: its IL-6 at 2 h 11.9

# input compound: CCCCC/C=C\C/C=C\CCCCCCCCOC(=O)NC(COC(=O)NCCNC)C(=O)OCCCCCC(=O)OCC(CCCCCCCC)CCCCCCCCCC (stereo not shown) ; wanted: its IL-6 at 2 h 14

# input compound: CCCCC/C=C\C/C=C\CCCCCCCCOC(=O)NC(COC(=O)NCCN1CCCCCC1)C(=O)OCCCCCCCCCC(=O)OCCCCCCC (stereo not shown) ; wanted: its IL-6 at 2 h 78.7
